Numbers sourced from patent US9802899B2.

Measurement Description: Determination of the log P values by HPLC (formic acid method)
Type: physicochemical
Measurement Context: reversed-phase column (C 18), acidic range (pH 3.4), 55° C.
So I've got a bunch of molecules here, and I need their log P values.
Numbers only.

CC(=O)c1ccccc1C(=O)Nc1ccn(-c2c(F)cccc2F)n1 | 2.38
O=C(Nc1cnn(-c2c(F)cccc2F)n1)c1ccccc1I | 2.81
O=C(c1ccccc1C(F)(F)F)N(C(=O)c1ccccc1C(F)(F)F)c1nn(-c2ccccc2Br)nc1Cl | 4.87
Cn1cc(Br)c(C(=O)Nc2ccn(-c3c(F)cccc3F)n2)n1 | 2.37

Hi! Can you tell me log P for each of these molecules?
1. O=C(Nc1ccn(-c2ncc(F)cc2F)n1)c1cccnc1I
2. CCn1ncc(Br)c1C(=O)Nc1ccn(-c2c(F)cccc2F)n1
3. CCOc1c(Cl)cccc1-n1ccc(NC(=O)c2cccnc2C(F)(F)F)n1

1.79
2.84
3.21
